tested on: SNB-75 CNS; assay: NCI tumour cell line growth inhibition, 48 h; in the data active means GI50 below about 0.43 µM; inactive means the rest
Classes used: class 1 (active), class 0 (inactive)

{"compound": "c1ccc2c(Nc3ccc(Oc4ccc(Nc5c6ccccc6nc6ccccc56)cc4)cc3)c3ccccc3nc2c1", "qualitativeLabel": "class 0"}
{"compound": "CC1CC(C)/C(=N/NC(N)=O)C(C(O)CC2CCC(=O)NC2=O)C1 (stereo not drawn)", "qualitativeLabel": "class 0"}
{"compound": "O=C(Nc1ccc(Cl)cc1)c1ccc([N+](=O)[O-])o1", "qualitativeLabel": "class 0"}
{"compound": "O=c1[nH]ccc2nc(-c3ccc(CN4CCC(c5nc(-c6ccccn6)n[nH]5)CC4)cc3)c(-c3ccccc3)cc12", "qualitativeLabel": "class 1"}
{"compound": "CO/N=C(\\COc1ccc2c(c1)oc(=O)c1cc(OC)ccc12)c1cccc(OC)c1", "qualitativeLabel": "class 0"}
{"compound": "CC(C)(C)c1cn2cccc(C(=O)N3CCN(CC(=O)Nc4ccc(Cl)cc4C(=O)c4ccccc4Cl)CC3)c2n1", "qualitativeLabel": "class 0"}
{"compound": "CCC[CH2][Sn]1([CH2]CCC)[O]C(=O)c2cccc(OC)c2[O]1", "qualitativeLabel": "class 1"}
{"compound": "COc1cc(OC)c2cc(C(=O)O)c(=O)oc2c1", "qualitativeLabel": "class 0"}

----------
test system: SN12C renal; assay: NCI tumour cell line growth inhibition, 48 h

{"compound": "COc1ccc(N(C)c2nc(Cl)nc3ccn(C)c23)cc1", "TGI": "> 100 µM"}
{"compound": "NC1=NN(c2ccccc2)C2(c3ccncc3C(=O)O)C1C(N)=NN2c1ccccc1 (stereo not drawn)", "TGI": "> 100 µM"}
{"compound": "O=c1c2ccccc2c2c1c1c3ccccc3c(=O)c1c1c3ccccc3c(=O)c21", "TGI": "> 100 µM"}

----------
test system: UACC-62 melanoma; assay: NCI tumour cell line growth inhibition, 48 h
propertyMeasured: GI50

{"chemSmiles": "COc1cc(-n2cc(-c3ccc(F)cc3)[nH]c2=S)cc(OC)c1OC", "result": "> 100 µM"}
{"chemSmiles": "O=C(N1CCC(CN=c2cc3n(-c4ccc(Cl)cc4)c4ccccc4nc-3cc2Nc2ccc(Cl)cc2)CC1)N1CC1", "result": "1.92 µM"}
{"chemSmiles": "COc1cc2c3c(n(CCCCNC(=O)OCC4c5ccccc5-c5ccccc54)c(=O)c2cc1OC)-c1cc2c(cc1C3=O)OCO2", "result": "45.7 µM"}

----------
system: UO-31 renal; assay: NCI tumour cell line growth inhibition, 48 h
Reported TGI values for the following compounds.

{"compound": "O/N=C1/CCCCCC1NO (configuration not stated)", "targetOrSystem": "UO-31 renal", "TGI": "> 100 µM"}
{"compound": "O=C1OC2c3ccccc3C(=O)C2(c2ccccc2)N1c1ccccc1 (configuration not stated)", "targetOrSystem": "UO-31 renal", "TGI": "> 200 µM"}
{"compound": "CCSc1nc(N2CCCCC2)c2cn[nH]c2n1", "targetOrSystem": "UO-31 renal", "TGI": "> 100 µM"}
{"compound": "COc1ccc(C(=O)Cn2c(C(C)=O)nc3ccccc32)cc1", "targetOrSystem": "UO-31 renal", "TGI": "> 57.3 µM"}
{"compound": "COc1ccc(C(=O)/C=C/c2ccc(OCC(=O)O)cc2)cc1", "targetOrSystem": "UO-31 renal", "TGI": "> 100 µM"}
{"compound": "O=c1oc2cccnc2n1CCN1CCN(c2ccc(Oc3ccccc3)cc2)CC1", "targetOrSystem": "UO-31 renal", "TGI": "> 100 µM"}
{"compound": "CC(=O)OC1(C#N)CC2OC1C1C2N1C(=O)OC(C)(C)C (configuration not stated)", "targetOrSystem": "UO-31 renal", "TGI": "> 100 µM"}
{"compound": "N#CCc1ccc(/C(C#N)=C2/OC(=N)C(c3ccc(CC#N)cc3)C2=O)cc1 (configuration not stated)", "targetOrSystem": "UO-31 renal", "TGI": "> 100 µM"}
{"compound": "CC(=O)Nc1ccc2c(c1)C(=O)c1cccc(F)c1-2", "targetOrSystem": "UO-31 renal", "TGI": "> 100 µM"}
{"compound": "COc1cc(C=Nc2ccc(S(N)(=O)=O)cc2)cc(OC)c1", "targetOrSystem": "UO-31 renal", "TGI": "> 50 µM"}
{"compound": "CC(=O)NC(CCCCNC(=O)OC(C)(C)C)C(=O)O (configuration not stated)", "targetOrSystem": "UO-31 renal", "TGI": "> 100 µM"}
{"compound": "Cc1ccc(NC(=O)C(=O)C2NC(=S)NC2=O)c([N+](=O)[O-])c1 (configuration not stated)", "targetOrSystem": "UO-31 renal", "TGI": "> 100 µM"}
